# Measured Target: ER (Homo sapiens)
# Construct: host or cells: T47D and MCF7 human breast cancer cells
# Measurement Description: ER degradation activity, in-cell western blot analysis in T47D cells
# Type: cell-based
# Conditions Used: 16 hours, Table A does not say which cell line (T47D or MCF7), read-out: Potency (DC50)
# Experimental: ER degradation activity was evaluated in the human breast cancer cell line T47D and MCF7 purchased from the American Type Culture Collection (ATCC), Manassas, VA, and maintained and cultured in Dulbecco's Modified Eagle's medium (DMEM) containing 10% fetal bovine serum, 1 unit/ml of penicillin and 1 μg/ml of streptomycin. […]
Assay Metric: DC50

Request: Quick check: DC50 of C[C@@H]1Cc2c([nH]c3ccccc23)[C@@H](c2c(F)cc(N3CCC(N4CCC(C(=O)N5Cc6cc7c(cc6C5)C(=O)N(C5CCC(=O)NC5=O)C7=O)CC4)C3)cc2F)N1CC(F)F (stereo partly shown) [E 110] ?
Response: > 100 nM

Request: Quick check: DC50 of O=C1CCC(N2C(=O)c3cc4c(cc3C2=O)CN(C(=O)CN2CCC3(CC2)CCN(c2ccc([C@@H]5c6ccc(O)cc6CC[C@@H]5c5ccccc5)c(F)c2)C3)C4)C(=O)N1 (mixture of isomers) [E 153] ?
Response: > 100 nM

Request: Quick check: DC50 of C[C@@H]1Cc2c([nH]c3ccccc23)[C@@H](c2c(F)cc(N3CCC4(CCN(CC(=O)N5Cc6cc7c(cc6C5)C(=O)N(C5CCC(=O)NC5=O)C7)C4)CC3)cc2F)N1CC(F)F (stereo partly shown) [E 63] ?
Response: < 10 nM

Request: Quick check: DC50 of C[C@@H]1Cc2c([nH]c3ccccc23)[C@@H](c2c(F)cc(N3CCC4(CCN(C(=O)CN5Cc6cc7c(cc6C5)C(=O)N(C5CCC(=O)NC5=O)C7)C4)CC3)cc2F)N1CC(F)F (stereo partly shown) [E 64] ?
Response: < 10 nM

Request: Quick check: DC50 of C[C@@H]1Cc2cc(O)ccc2[C@@H](c2c(F)cc(N3CC4(CCN(CC(=O)N5Cc6cc7c(cc6C5)C(=O)N(C5CCC(=O)NC5=O)C7=O)CC4)C3)cc2F)N1CC(C)(F)F (stereo partly shown) [E 25] ?
Response: > 100 nM

Request: Quick check: DC50 of O=C1CCC(N2C(=O)c3cc4c(cc3C2=O)CN(C(=O)CN2CC3(CCN(c5ccc([C@@H]6c7ccc(O)cc7CC[C@@H]6c6ccccc6)cc5)CC3)C2)C4)C(=O)N1 (mixture of isomers) [E 125] ?
Response: 10 to 100 nM

Request: Quick check: DC50 of C[C@@H]1Cc2c([nH]c3ccccc23)[C@@H](c2c(F)cc(C3CCC(CN4CCC(N5Cc6cc7c(cc6C5)C(=O)N(C5CCC(=O)NC5=O)C7=O)CC4)CC3)cc2F)N1CC(F)F (stereo partly shown) [E 282] ?
Response: > 100 nM

Request: Quick check: DC50 of C[C@@H]1Cc2c([nH]c3ccccc23)[C@@H](c2c(F)cc(N3CC4(CCN4CC(=O)N4Cc5cc6c(cc5C4)C(=O)N(C4CCC(=O)NC4=O)C6=O)C3)cc2F)N1CC(F)F (stereo partly shown) [E 60] ?
Response: > 100 nM

Request: Quick check: DC50 of O=C1CCC(N2C(=O)c3cc4c(cc3C2=O)CN(CC(=O)N2CCC3(CC2)CCN(c2ccc([C@@H]5c6ccc(O)cc6CC[C@@H]5C5CCCCC5)cc2)CC3)C4)C(=O)N1 (mixture of isomers) [E 177] ?
Response: 10 to 100 nM

Request: Quick check: DC50 of O=C1CCC(N2C(=O)c3cc4c(cc3C2=O)CN(CC(=O)N2CCC3(CC2)CCN(c2ccc([C@@H]5c6ccc(O)cc6CCC56CCCC6)cc2)CC3)C4)C(=O)N1 (mixture of isomers) [E 179] ?
Response: 10 to 100 nM

###

# Measured Target: ER (Homo sapiens, UniProt P03372)
# Construct: host or cells: T47D and MCF7 human breast cancer cells
# Measurement Description: ER degradation activity, in-cell western blot analysis in T47D cells
# Assay type: cell-based
# Conditions Used: 16 hours, Table A does not say which cell line (T47D or MCF7), read-out: Potency (DC50)
Assay Metric: DC50

Request: Quick check: DC50 of C[C@@H]1Cc2c([nH]c3ccccc23)[C@@H](c2c(F)cc(N3CCCC4(CCN(C(=O)CN5Cc6cc7c(cc6C5)C(=O)N(C5CCC(=O)NC5=O)C7=O)C4)C3)cc2F)N1CC(F)F (stereo partly shown) ?
Response: > 0.1 µM

Request: Quick check: DC50 of O=C1CCC(N2C(=O)c3cc4c(cc3C2=O)CN(CC(=O)N2CCC3(CCN(c5ccc([C@@H]6c7ccc(O)cc7CC[C@@H]6c6ccccc6)cc5)CC3)C2)C4)C(=O)N1 (mixture of isomers) ?
Response: 0.01 to 0.1 µM

Request: Quick check: DC50 of O=C1CCC(N2C(=O)c3cc4c(cc3C2=O)CN(Cc2cnc(N3CC(Oc5ccc([C@@H]6c7ccc(O)cc7CC[C@@H]6c6ccccc6)cc5)C3)nc2)C4)C(=O)N1 (stereo partly shown) ?
Response: > 0.1 µM

Request: Quick check: DC50 of C[C@@H]1Cc2cc(O)ccc2[C@@H](c2c(F)cc(N3CCN(C(=O)[C@H]4CC[C@@H](N5Cc6cc7c(cc6C5)C(=O)N(C5CCC(=O)NC5=O)C7=O)CC4)CC3)cc2F)N1CC(F)F (mixture of isomers) ?
Response: > 0.1 µM

Request: Quick check: DC50 of O=C1CCC(N2C(=O)c3cc4c(cc3C2=O)CN(CCN2CCC3(CC2)CN(c2ccc([C@@H]5c6ccc(O)cc6CC[C@@H]5c5ccccc5)cc2)C3)C4)C(=O)N1 (mixture of isomers) ?
Response: 0.01 to 0.1 µM

Request: Quick check: DC50 of C[C@@H]1Cc2c([nH]c3ccccc23)[C@@H](c2c(F)cc(N3CC(C(=O)N4CCC(CN5Cc6cc7c(cc6C5)C(=O)N(C5CCC(=O)NC5=O)C7=O)CC4)C3)cc2F)N1CC(F)F (stereo partly shown) [E 216] ?
Response: < 0.01 µM

Request: Quick check: DC50 of O=C1CCC(N2Cc3cc4c(cc3C2=O)CN(CC2CCN(c3ccc([C@@H]5c6ccc(O)cc6CC[C@@H]5c5ccccc5)cc3)CC2)C4)C(=O)N1 (mixture of isomers) ?
Response: > 0.1 µM

Request: Quick check: DC50 of O=C1CCC(N2C(=O)c3cc4c(cc3C2=O)CN(CC(=O)N2CCCC(Oc3ccc([C@@H]5c6ccc(O)cc6CC[C@@H]5c5ccccc5)cc3)C2)C4)C(=O)N1 (mixture of isomers) ?
Response: > 0.1 µM

Request: Quick check: DC50 of O=C1CCC(N2Cc3cc4c(cc3C2=O)CN(CC(=O)N2CCC3(C2)CN(c2ccc([C@@H]5c6ccc(O)cc6CC[C@@H]5c5ccccc5)cc2)C3)C4)C(=O)N1 (mixture of isomers) ?
Response: < 0.01 µM

Request: Quick check: DC50 of O=C1CCC(N2C(=O)c3cc4c(cc3C2=O)CN(C(=O)CN2CCC3(CC2)CCN(c2ccc([C@@H]5c6ccc(O)cc6CC[C@@H]5c5ccccc5)cc2F)C3)C4)C(=O)N1 (mixture of isomers) ?
Response: > 0.1 µM

###

# Measured Target: ER (Homo sapiens, UniProt P03372)
# Construct: host or cells: T47D and MCF7 human breast cancer cells
# Measurement Description: ER degradation activity, in-cell western blot analysis in T47D cells
# Type: cell-based
# Conditions Used: 16 hours, Table A does not say which cell line (T47D or MCF7), read-out: Potency (DC50)
For each entry below, report its DC50 value.

Request: Quick check: DC50 of O=C1CCC(N2C(=O)c3cc4c(cc3C2=O)CN(C(=O)CN2CCC3(CC2)CCN(c2ccc([C@@H]5c6ccc(B(O)O)cc6CC[C@@H]5c5ccccc5)cc2)CC3)C4)C(=O)N1 (mixture of isomers) ?
Response: > 100 nM

Request: Quick check: DC50 of C[C@@H]1Cc2c([nH]c3ccccc23)[C@@H](c2c(F)cc(N3CCC4(CCN(CC(=O)N5Cc6cc7c(cc6C5)C(=O)N(C5CCC(=O)NC5=O)C7=O)C4)C3)cc2F)N1CC(F)F (some centres unmarked) ?
Response: > 100 nM

Request: Quick check: DC50 of O=C1CCC(N2C(=O)c3cc4c(cc3C2=O)CN(CC(=O)N2CCC(Oc3ccc([C@@H]5c6ccc(O)cc6CC[C@@H]5c5ccccc5)cc3)CC2)C4)C(=O)N1 (some centres unmarked) ?
Response: > 100 nM

Request: Quick check: DC50 of C[C@@H]1Cc2c([nH]c3ccccc23)[C@@H](c2c(F)cc(N3CCC(CN4CC(C(=O)N5Cc6cc7c(cc6C5)C(=O)N(C5CCC(=O)NC5=O)C7=O)C4)CC3)cc2F)N1CC(F)F (some centres unmarked) ?
Response: > 100 nM

Request: Quick check: DC50 of C[C@@H]1Cc2c([nH]c3ccccc23)[C@@H](c2c(F)cc(N3CCC(N4CCN(CC(=O)N5Cc6cc7c(cc6C5)C(=O)N(C5CCC(=O)NC5=O)C7=O)CC4)CC3)cc2F)N1CC(F)F (some centres unmarked) ?
Response: < 10 nM
